Test system: Meloidogyne incognita
Test: Meloidogyne incognita test (sand, lettuce, gall formation after 14 days)
Type: in vivo
Settings: 20 ppm
Listed below: nematicidal efficacy (formation of galls) values for each entry.
assayMetric: nematicidal efficacy (formation of galls)

1) O=c1cc(C(F)(F)F)ncn1-c1cc([S+]([O-])CC(F)(F)F)c(Br)cc1F (racemic) [Example 41]: 90%
2) Cc1cc(F)c(-n2cnc(C(F)(F)C(F)(F)F)cc2=O)cc1SCC(F)(F)F [Example 9]: 90%
3) Cc1cc(C)c([S+]([O-])CC(F)(F)F)cc1-n1cnc(C(F)(F)C(F)(F)F)cc1=O (racemic) [Example 33]: 100%
4) Cc1cc(F)c(-n2cnc(C(F)(F)C(F)(F)F)cc2=O)cc1[S+]([O-])CC(F)(F)F (single isomer, unassigned) [Example 26]: 90%
5) Cc1ccc(-n2cncc(F)c2=O)cc1SCC(F)(F)F [Example 12]: 90%
6) Cc1ccc(-n2cncc(C)c2=O)cc1[S+]([O-])CC(F)(F)F (racemic) [Example 27]: 90%
7) Cc1cc(C)c([S+]([O-])CC(F)(F)F)cc1-n1cnc(C(F)(F)C(F)(F)F)cc1=O (racemic) [Example 45]: 100%
8) Cc1cc(C)c(-n2c(C)nc(C(F)(F)F)cc2=O)cc1SCC(F)(F)F [Example 30]: 90%

###

Test system: Phaedon cochleariae
Assay: Phaedon cochleariae spray test
Type: in vivo
Details: 500 g/ha, after 7 days
Listed below: efficacy (beetle larvae killed) values for each entry.
assayMetric: efficacy (beetle larvae killed) (%)

1. Cc1cc(F)c(-n2cnc(C(F)(F)C(F)(F)F)cc2=O)cc1[S+]([O-])CC(F)(F)F (single isomer, unassigned) [Example 18]: 83
2. Cc1cc(F)c(-n2cnc(C(F)(F)F)cc2=O)cc1[S+]([O-])CC(F)(F)F (centres unmarked) [Example 2]: 100
3. O=c1cc(C(F)(F)F)ncn1-c1ccc(Cl)c([S+]([O-])CC(F)(F)F)c1 (racemic) [Example 34]: 83
4. Cc1cc(F)c(-n2cnc(C(F)F)cc2=O)cc1[S+]([O-])CC(F)(F)F (racemic) [Example 55]: 100
5. Cc1cc(=O)n(-c2cc([S+]([O-])CC(F)(F)F)c(C)cc2F)cn1 (racemic) [Example 46]: 83
6. Cc1cc(Cl)c(-n2cnc(C(F)(F)F)cc2=O)cc1[S+]([O-])CC(F)(F)F (racemic) [Example 53]: 100
7. Cc1cc(=O)n(-c2cc(SCC(F)(F)F)c(C)cc2F)cn1 [Example 44]: 100
8. Cc1cc(F)c(-n2cnc(C(F)(F)C(F)(F)F)cc2=O)cc1SCC(F)(F)F [Example 9]: 100

###

Assay: log P by reversed-phase HPLC analogously to OECD Guideline 117
Type: physicochemical
Settings: pH 2.7
assayMetric: logP (HCOOH)

1. Cc1ccc(NC(=O)C=C(N)C(F)(F)F)cc1SCC(F)(F)F: 3.58
2. Cc1cc(F)c(NC(=O)C=C(N)C(C)(F)F)cc1SCC(F)(F)F: 3.55
3. Cc1cc(Cl)c(NC(=O)C=C(N)C(F)(F)F)cc1SCC(F)(F)F: 4.05
4. NC(=CC(=O)Nc1cc(SCC(F)(F)F)c(Cl)cc1Cl)C(F)(F)F: 4.24
5. O=C(C=C(O)C(F)(F)F)Nc1ccc(Cl)c(SCC(F)(F)F)c1: 2.84
6. NC(=CC(=O)Nc1cc(SCC(F)(F)F)c(Br)cc1F)C(F)(F)F: 3.88
7. Cc1cc(C)c(SCC(F)(F)F)cc1NC(=O)C=C(N)C(F)F: 3.24
8. Cc1cc(C)c(SCC(F)(F)F)cc1NC(=O)C=C(N)C(C)(F)F: 3.52
9. O=C(C=C(O)C(F)(F)F)Nc1cc(SCC(F)(F)F)c(Cl)cc1F: 2.86
